Data provenance: PubChem BioAssay (NCI)

Kindly supply the reported TGI values for the records listed here.
Test system: NCI-H23 lung
Experiment: NCI tumour cell line growth inhibition, 48 h

Field TGI (entry "CCOC(=O)c1ccc(-c2cc(C)[nH]n2)[nH]1" ) reads > 100 µM

Field TGI (entry "CCCCc1ccc2nc(NC(=O)OC)[nH]c2c1" ) reads > 100 µM

Field TGI (entry "CSc1nc2ccccc2c(=O)n1/N=C1\C(=O)N(CN2CCOCC2)c2ccc(Cl)cc21" ) reads > 100 µM

Field TGI (entry "O=c1ccc2nc(-c3ccccc3)nn(-c3ccccc3)c-2c1" ) reads 5.6 µM

Field TGI (entry COC(c1ccsc1)C(C#N)(C#N)N=Cc1ccsc1 (stereo unspecified) ) reads 26.2 µM

Field TGI (entry "O=c1[nH]nc(-c2ccccc2)c(-c2ccccc2)c1-n1nc(-c2ccccc2)c2ccccc2c1=O" ) reads > 100 µM

Field TGI (entry "CCN1CCC(C(=O)Nc2n[nH]c3nnc(-c4cccc(F)c4F)cc23)CC1" ) reads > 25 µM

Field TGI (entry COC(=O)C1Cc2c([nH]c3ccccc23)[C@H](CC(C)C)N1 (stereo partly specified) ) reads > 100 µM

Field TGI (entry O=C(CC(O)(c1ccccc1)c1ccc(Cl)cc1)NC(=O)c1ccccc1O (stereo unspecified) ) reads 26.9 µM

Field TGI (entry "Cc1ccccc1N=C(N)NC#N" ) reads > 100 µM

Field TGI (entry "COc1c2occc2c(OC)c2c(=O)c(S(=O)(=O)NC(=O)Nc3ccc(Cl)cc3)coc12" ) reads > 10 µM

* * *

Test system: UO-31 renal
Experiment: NCI tumour cell line growth inhibition, 48 h; in the data active = GI50 below about 0.43 µM; inactive = the rest
Please reply with one of these outcomes: active, inactive

Fill in: this test's call for Cc1c(CNc2ccc(Cl)c(C(=O)NC(CC(=O)O)C(=O)O)c2)ccc2nc(N)nc(N)c12 (centres undefined) is ___ inactive

Fill in: this test's call for COc1cc([C@@H]2c3cc4c(cc3[C@H](OC3OC5COC(c6ccccc6)OC5C(O)C3O)[C@H]3COC(=O)[C@H]23)OCO4)cc(OC)c1OC (some centres undefined) is ___ active

Fill in: this test's call for "c1ccc([CH2][Sn]([CH2]c2ccccc2)([S]c2cccc3cccnc23)[S]c2cccc3cccnc23)cc1" is ___ active

Fill in: this test's call for "CC(C)(O)Cn1c(=O)c(Oc2ccc(F)cc2F)cc2cnc(NC3CCOCC3)nc21" is ___ inactive

* * *

Test system: SF-295 CNS
Experiment: NCI tumour cell line growth inhibition, 48 h
Parameter Measured: TGI

Field TGI (entry "c1ccc([CH2][Sn]([CH2]c2ccccc2)([S]c2cccc3cccnc23)[S]c2cccc3cccnc23)cc1" ) reads 2.29 µM

Field TGI (entry "O=C(O)Cc1ccc(Oc2nc3ccccc3nc2-c2cccs2)cc1" ) reads > 100 µM

Field TGI (entry COC1CC(OC2OC(CO)C(O)C(O)C2O)/C(=C\C#N)C(O)C1OC (stereo not drawn) ) reads > 100 µM

* * *

Test system: NCI-H226 lung
Test: NCI tumour cell line growth inhibition, 48 h
Kindly supply the reported TGI values for the records listed here.
Please respond with the number in µM and leave the unit unwritten.

Field TGI (entry "CC/C=C/[C@@H]1C=C[C@@H]2CCC[C@H]2[C@@H]1CC[C@H](O)[C@H](C)N" ) reads 27.6

Field TGI (entry "Oc1nc(N/N=C/c2c[nH]c3ccccc23)[nH]c1/C=C1\C=Nc2ccccc21" ) reads 34.4

Field TGI (entry "O=C(Nc1ccc(Cl)c(Cl)c1)Nc1ccc(Cl)c([N+](=O)[O-])c1" ) reads 5.54

Field TGI (entry "Cc1cc(Cl)n2c(nc3ccccc32)c1C#N" ) reads 10
